# target.system: Recombinant human HSD17B13 (Homo sapiens (Human), UniProt Q7Z5P4)
# Sequence (Q7Z5P4 20-300): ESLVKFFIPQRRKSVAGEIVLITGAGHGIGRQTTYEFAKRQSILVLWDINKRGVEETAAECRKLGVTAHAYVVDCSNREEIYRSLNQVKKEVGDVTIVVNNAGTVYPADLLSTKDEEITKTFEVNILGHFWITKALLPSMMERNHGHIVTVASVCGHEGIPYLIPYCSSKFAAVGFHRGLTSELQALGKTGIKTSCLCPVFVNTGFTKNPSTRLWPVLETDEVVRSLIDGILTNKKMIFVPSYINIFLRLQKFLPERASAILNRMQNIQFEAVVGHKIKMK
# assay.overview: HSD17B13 rapid-fire mass spectrometry assay (RF/MS assay)
# measurement.conditions: inhibition of HSD17B13; LTB4 10 μM, NAD+ 0.5 mM, RT 3 h; IC50 ranges A-E
recorded.endpoint: IC50

Answered examples (5):
molecule | IC50
COc1cc(C(=O)O)c(F)cc1NS(=O)(=O)c1cnn(-c2ccc([C@H]3CC[C@@H](C(C)C)CC3)cc2)c1 | 100 to 500 nM
COc1cc(C(=O)O)c(F)cc1NS(=O)(=O)c1csc(-c2ccc(-c3ccc(C45CC6C[C@H](C4)C[C@H](C6)C5)cc3)cc2)n1 | < 100 nM
COc1cc(C(=O)O)c(F)cc1NS(=O)(=O)c1csc(-c2ccc(OC3CCCCC3)cc2)n1 | 100 to 500 nM
COc1cc(C(=O)O)c(F)cc1NS(=O)(=O)c1csc(-c2ccc(C3=CCC(C)(C)CC3)cc2C(C)C)n1 | 100 to 500 nM
O=C(O)c1ccc(NS(=O)(=O)c2cnc(-c3ccc(F)cc3)s2)cc1F | 500 to 1000 nM

Dear colleague, could you send me IC50 for each of the items below? Thanks.
1. COc1cc(C(=O)O)c(F)cc1NS(=O)(=O)c1csc(-c2ccc(-c3ccc(-c4ccc(C5=CCC(C(C)(C)C)CC5)cc4C(F)(F)F)cc3C(F)(F)F)cc2C(F)(F)F)n1 (stereo not drawn)
2. COc1cc(C(=O)O)ccc1NS(=O)(=O)c1csc(-c2ccc(-c3ccc(OC(F)(F)F)cc3)cc2)n1
3. O=C(O)c1ccc2sc(NS(=O)(=O)c3cnc(-c4ccc(F)cc4)s3)nc2c1
4. COc1cc(C(=O)O)ccc1NS(=O)(=O)c1csc(-c2cccc3ccncc23)n1
5. COc1cc(C(=O)O)ccc1NS(=O)(=O)c1csc(-c2ccc3cc(C4=CCC(C)(C)CC4)ccc3c2)n1
6. COc1cc(C(=O)O)ccc1NS(=O)(=O)c1csc(C#Cc2ccc(C#N)cc2)n1

Resp:
1: 1000 to 100000 nM; 2: 100 to 500 nM; 3: 1000 to 100000 nM; 4: 1000 to 100000 nM; 5: 500 to 1000 nM; 6: 1000 to 100000 nM

====

I'd be grateful if you could share measured IC50 for these entries.
# target.system: Recombinant human HSD17B13 (Homo sapiens (Human))
# assay.overview: HSD17B13 rapid-fire mass spectrometry assay (RF/MS assay)
# measurement.conditions: inhibition of HSD17B13; LTB4 10 μM, NAD+ 0.5 mM, RT 3 h; IC50 ranges A-E

Would you please look over these solved cases?
molecule | target.system | meas.value
COc1cc(C(=O)O)ccc1NS(=O)(=O)c1ccc(-c2ccc(F)cc2)c(OC)c1 [Example 324] | Recombinant human HSD17B13 (Homo sapiens (Human)) | 100 to 500 nM
COc1cc(C(=O)O)ccc1NS(=O)(=O)c1coc(-c2ccc(C3CCC(C(F)(F)F)CC3)cc2)n1 (stereo not shown) [Example 468] | Recombinant human HSD17B13 (Homo sapiens (Human)) | < 100 nM
COc1cc(C(=O)O)ccc1NS(=O)(=O)c1csc(-c2ccc(-c3ccccc3)c(F)c2)n1 [Example 302] | Recombinant human HSD17B13 (Homo sapiens (Human)) | 100 to 500 nM
COc1cc(C(=O)O)ccc1NS(=O)(=O)c1cccc(-c2ccc(C3CCCCC3)cc2)c1 [Example 472] | Recombinant human HSD17B13 (Homo sapiens (Human)) | 100 to 500 nM
COc1cc(C(=O)O)ccc1NS(=O)(=O)c1csc(-c2ccc(C#Cc3ccc(F)cc3)cc2)n1 [Example 486] | Recombinant human HSD17B13 (Homo sapiens (Human)) | 500 to 1000 nM

List reported IC50 for each of these molecules:
1. COc1cc(C(=O)O)ccc1NS(=O)(=O)c1ccc(-c2cccc(O)c2)s1 [Example 191]
2. COc1cc(C(=O)O)c(F)cc1NS(=O)(=O)c1coc(-c2ccc([C@H]3CC[C@H](C(F)(F)F)CC3)cc2C(F)(F)F)n1 [Example 679]

Resp:
< 100 nM
< 100 nM
